- System: FHC
- assay: In vitro inhibition of FHC normal human colon cell proliferation
- Assay type: functional, cell-based
value.kind: IC50 (µM)
Just the number please, in µM, no unit attached.

- compound: "CCCCCCCCCCCCCCCCCCOCC(CCP(=O)([O-])OCC[N+](C)(C)C)n1ccnc1 (configuration not stated)"
  assayed.system: "FHC"
  unit.spec: "µM"
  IC50: 5

State recorded IC50 with FHC, entry CCCCCCCCCCCCCCCCCCOCC(COP(=O)([O-])OCC[N+](C)(C)C)OC (configuration not stated) [EDELFOSINE] , no comment. 45

---

- Test system: MDA-MB-231
- assay: In vitro inhibition of estrogen receptor negative MDA-MB-231 human breast cancer cell proliferation
- Type: functional, cell-based
value.kind: pIC50
Recall that pIC50 is obtained by taking minus log10 of the concentration measured in molar.

- compound: "CCCCCCCCCCCCCCCCCCOCC(COP(=O)([O-])OCC[N+](C)(C)C)OC (stereo not drawn) [EDELFOSINE]"
  observed: 5.30
- compound: "CCCCCCCCCCCCCCCCCCOCC(CCP(=O)([O-])OCC[N+](C)(C)C)n1cncn1 (stereo not drawn)"
  observed: 5.22

Continue with the next compound.
Give the reported pIC50 for this compound. CCCCCCCCCCCCCCCCCCOCC(CCP(=O)([O-])OCC[N+](C)(C)C)n1ccnc1 (stereo not drawn) 5.35
